method: qHTS assay to identify small molecule antagonists of the glucocorticoid receptor (GR) signaling pathway - cell viability counter screen (AID 720693); further: nearly all actives have a fitted effect of over 55% in size
condition.parameters: GR-bla HeLa viability, CellTiter-Glo luminescence, 18 h, with 5 nM dexamethasone present; series mostly up to 58.5 µM
Source text: National Center for Advancing Translational Sciences [NCATS] NIH Chemical Genomics Center [NCGC] U.S. Environmental Protection Agency [EPA] National Institutes of Environmental Health Sciences [NIEHS] National Toxicology Program [NTP] U.S. Food and Drug Administration [FDA] The Glucocorticoid receptor (GR) is one of the members of the nuclear receptor family of ligand-dependent transcription factors. […] The activation of the reporter gene under culture conditions can be detected by fluorescence intensity. […]
Records with an inconclusive call do not appear. Calls of active or inactive are those of the source. The call rests on the fitted dose curve; in most records, active means well fitted cell-killing curve with a large enough effect in the repeat runs; inconclusive means weak or mixed curves, or effect the other way; inactive means no such curve, though single readings can be large or run the other way.
Give one outcome, nothing more. List: active, inactive

molecule	group.label
O.O.O.O=C([O-])[C@H]([O-])[C@@H]([O-])C(=O)[O-].O=C([O-])[C@H]([O-])[C@@H]([O-])C(=O)[O-].[K+].[K+].[Sb+3].[Sb+3]	inactive
CCNS(=O)(=O)C(F)(F)C(F)(F)C(F)(F)C(F)(F)C(F)(F)C(F)(F)C(F)(F)C(F)(F)F	inactive
Brc1cccc(-c2ccccc2)c1	inactive
C=CC(=C)C	inactive
C[N+]1(C)[C@@H]2CC[C@H]1CC(OC(=O)C(CO)c1ccccc1)C2 (stereo not given in full)	inactive

Dear colleague, could you share the recorded outcome for `CC(=O)O.CC(=O)O.CC(=O)O.CC(=O)O.CC(=O)O.CC(=O)O.CC(=O)O.O.O.[Cr].[Cr].[Cr]` when you have a moment?
inactive

Dear colleague, could you share the recorded outcome for `COc1ccc2c3c1O[C@H]1[C@H](O)CC[C@H]4[C@@H](C2)N(C)CC[C@@]341` when you have a moment?
inactive

Dear colleague, could you share the recorded outcome for `O=C(Nc1ccc(F)cc1F)c1cccnc1Oc1cccc(C(F)(F)F)c1` when you have a moment?
inactive

Dear colleague, could you share the recorded outcome for `ClC1=C(Cl)[C@]2(Cl)[C@@H]3[C@H]4C[C@H]([C@@H]5O[C@H]45)[C@@H]3[C@@]1(Cl)C2(Cl)Cl` when you have a moment?
inactive

Dear colleague, could you share the recorded outcome for `COC(=O)c1cc(Oc2ccc(Cl)cc2Cl)ccc1[N+](=O)[O-]` when you have a moment?
inactive

Dear colleague, could you share the recorded outcome for `O=C(N[C@@H]1N=C(c2ccccc2F)c2cccc3c2N(CC3)C1=O)c1cc2ccccc2[nH]1` when you have a moment?
inactive
